biological target: T1, recombinant human PD-L1 extracellular domain (ECD) protein (cat #FCL0784B, G&P Biosciences) (human, UniProt Q9NZQ7 19-238); test: SPR, human PD-L1 ECD immobilised on CM5 chip
T1 construct: extracellular domain; Bought protein; also called hPD-L1 protein; human PD-L1 protein
T1 sequence (Q9NZQ7 19-238): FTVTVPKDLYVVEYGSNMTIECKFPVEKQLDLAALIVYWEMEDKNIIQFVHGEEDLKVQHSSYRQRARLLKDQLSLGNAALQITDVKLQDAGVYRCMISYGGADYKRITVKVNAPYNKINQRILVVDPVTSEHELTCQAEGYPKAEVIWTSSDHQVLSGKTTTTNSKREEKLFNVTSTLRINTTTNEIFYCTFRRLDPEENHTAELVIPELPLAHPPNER
No end group written: not given here.
ENDPOINT: koff (s⁻¹)
Give just the numeric value; s⁻¹ need not be written.

| BINDER | UNITS_OF_MEASURE | koff |
| --- | --- | --- |
| HYPFRPHANQAS (not fully specified, 12-mer from phage display) [CLP001 peptide] | s⁻¹ | 0.00281 |
| WHFSYNWRWLPP (not fully specified, 12-mer from phage display) [CLP003 peptide] | s⁻¹ | 0.00162 |
| DYHDPSLPTLRK (not fully specified, 12-mer from phage display) [CLP004 peptide] | s⁻¹ | 0.00275 |

Moving on to the next binder.
# binder WHRSYYTWNLNT (not fully specified, 12-mer from phage display) [CLP002 peptide] ; its koff = 0.00145
